Source: patent US20240241135A1

Target: T1, recombinant human regenerating islet-derived protein 1α (REG1A) (human, UniProt P05451 23-166, limits assumed)
T1 construct: also called recombinant human REG1A; recombinant REG1A
T1 sequence (looked up): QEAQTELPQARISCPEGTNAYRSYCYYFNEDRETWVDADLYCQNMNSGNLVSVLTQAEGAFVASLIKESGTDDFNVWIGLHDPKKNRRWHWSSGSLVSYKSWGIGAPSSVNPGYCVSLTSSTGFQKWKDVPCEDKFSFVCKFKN
Assay: sandwich ELISA; capture 12F12A10; REG1A 3.70 ng/mL
value type: OD value (OD)
// return numeric value only (unit: OD, not printed)

Some binders with recorded OD value:
{"binder": "antibody 12F12A10 (antibody, V domains shown, Mouse monoclonal from hybridoma, stated mouse IgG1/Kappa; also called 12F12A10-biotin; Antibody 2) VH: QVQLQQSATELARPGASVKMSCKASGYTFTSYMMHWVKQRPGQGLEWIGYINPSSGYTDYNQKFKDKTTLTADKSSSTAYMQLSSLTSEDSAVYYCARYRYPHYFDYWGQGTTLTVSS VL: QIVLTQSPAIMSASPGEKVTMTCSASSSVSYIHWYQQKSGTSPKRWIYDTSKLASGVPARFSGSGSGTSYSLTISSMEAEDAAIYYCQQWSSNPPTFGAGTKLELKR", "value type": "OD value", "quantity unit": "OD", "readout number": 0.088}
{"binder": "antibody 11D11B11 (antibody, mouse IgG2a, kappa, V domains shown, Mouse monoclonal from hybridoma, stated mouse IgG1/Kappa; Used unlabelled as capture and biotin-labelled as detection antibody; also called 11D11B11-biotin) VH: DVKLVESGGGLVKPGGSLKLSCAASGFTFSSFSMSWFRQTPDKRLEWVATISSGGSSTYYPDSVKGRFTISRDNAKNTLYLQMTSLKSEDTAIFYCRGGYYGNYDPLDYWGQGTSVTVSA VL: DIVMIQSQKFMSTSVGDRVSITCTASHNVDSNVAWYQQKPGQSPQALIYSASYRYSGVPDRFTGSGSGTDFTLTINNVQSEDLAEYFCQQYNSYPLTFGGGTRLEIKR", "value type": "OD value", "quantity unit": "OD", "readout number": 1.54}

Sample antibody 21B11D2 (antibody, mouse IgG2b, kappa, V domains shown, Mouse monoclonal from hybridoma, stated mouse IgG1/Kappa; Used unlabelled as capture and biotin-labelled as detection antibody; also called 21B11D2-biotin) VH: QAQLQQSGAELVRPGASVTLSCKASGYIFTDYEMHWVKQTPVHGLEWIGAIDPETGGTAYNQKFKGKARLTADKSSSTAYMELRSLTSEDSAVYYCTIYYTNHFDYWGQGTTLTVSS VL: DVVMTQTPLSLPVSLGDQASISCRSSQSLVYSNGDTYLYWYLQKPGQSPKLLIYKVSNRFSGVPDRFSGSGSGTDFTLKISRVEAEDLGVYFCSQSTHVPLTFGAGTKLELKR ; OD value observed: 2.38
